Data provenance: patent US7943646B2

Tested on: HOS
MEASUREMENT_NOTES: Cytotoxicity test (MTT), HOS
Format: cell-based
EXPERIMENTAL_PARAMETERS: 10^−6M, 72 hrs, in comparison with the control group
RECORDED_METRIC: survival rates of the cells (%)

> print(dat)
                                    compound              recorded.metric  experimental.value
 1  CNc1nc(-c2ccc(OCCCCCOc3ccc(C(=N)NO)cc3)cc2)c(CCNCCCn2ccnc2)s1 [Example 51]  survival rates of the cells                99.6
 2  CNc1nc(-c2ccc(OCCCCCOc3ccc(C(=N)N)cc3)cc2)c(CCN2CCOCC2)s1 [Example 52]  survival rates of the cells                98.8
 3  Cc1nc(-c2ccc(OCCCCCOc3ccc(C(=N)NO)cc3)cc2)c(CCN2CCOCC2)s1 [Example 18]  survival rates of the cells                99.7
 4  N=C(NO)c1ccc(OCCCCCOc2ccc(-c3nc(N)sc3CCNCCN3CCOCC3)cc2)cc1 [Example 40]  survival rates of the cells               103.2
 5  Cc1nc(-c2ccc(OCCCCCOc3ccc(C(=N)N)cc3)cc2)c(CCN2CCOCC2)s1 [Example 46]  survival rates of the cells                94.1
 6  Cc1nc(-c2ccc(OCCCCCOc3ccc(C(=N)NO)cc3)cc2)c(CCN(CC(C)C)C(=O)c2cccnc2)s1 [Example 66]  survival rates of the cells               105.9
 7  N=C(NO)c1ccc(OCCCCCOc2ccc(-c3nc(N4CCOCC4)sc3CCNCCN3CCOCC3)cc2)cc1 [Example 62]  survival rates of the cells                95.1
 8  N=C(N)c1ccc(OCCCCCOc2ccc(-c3nc(C4CCCCC4)sc3CCN3CCOCC3)cc2)cc1 [Example 45]  survival rates of the cells               106.9
 9  N=C(NO)c1ccc(OCCCCCOc2ccc(-c3nc(CN4CCCCC4)sc3CCN3CCOCC3)cc2)cc1 [Example 63]  survival rates of the cells                86.5
10  N=C(NO)c1ccc(OCCCCCOc2ccc(-c3nc(N(CCN4CCOCC4)Cc4ccccc4)sc3CCN3CCOCC3)cc2)cc1 [Example 56]  survival rates of the cells                98.8
11  N=C(NO)c1ccc(OCCCCCOc2ccc(-c3nc(C4CCCCC4)sc3CCN(C(=O)c3cccnc3)C3CC3)cc2)cc1 [Example 68]  survival rates of the cells                82.9
